Measured shrunken log2 fold change, listed per entry for reference.
Test system: Escherichia coli TOP10
assayMethodText: shrunken log2 fold change of peptide-encoding DNA abundance (4.5 h post-induction vs induction); higher = less antimicrobial activity (less host growth inhibition)
cond: time post-induction: 4.5 h; library: site-saturation at positions 5, 18, 19, 20
# print the numeric value only

Some sequences with known shrunken log2 fold change results, for comparison:
>>> measuredresult("RRIRDRPPRLPRPRPRPPIRPRP")
0.173
>>> measuredresult("RRIRARPPRLPRPRPRPSMCPRP")
-0.081
>>> measuredresult("RRIRVRPPRLPRPRPRPYFLPRP")
-0.149
>>> measuredresult("RRIRHRPPRLPRPRPRPEQHPRP")
1.73

// shrunken log2 fold change lookup, key: RRIRCRPPRLPRPRPRPKHIPRP -0.443

---

System: Escherichia coli TOP10
assayMethodText: shrunken log2 fold change of peptide-encoding DNA abundance (4.5 h post-induction vs induction); higher = less antimicrobial activity (less host growth inhibition)
cond: time post-induction: 4.5 h; library: site-saturation at positions 5, 18, 19, 20
Okay, here is how we bin by shrunken log2 fold change: bucket A (below -0.1), bucket B (-0.1 to below -0.01), bucket C (-0.01 or more)

Please classify: RRIRPRPPRLPRPRPRPLIMPRP bucket A

Please classify: RRIRCRPPRLPRPRPRPKLHPRP bucket A

Please classify: RRIRMRPPRLPRPRPRPFDLPRP bucket C

Please classify: RRIRYRPPRLPRPRPRPPYVPRP bucket A

Please classify: RRIRYRPPRLPRPRPRPPMDPRP bucket A

Please classify: RRIRVRPPRLPRPRPRPIDFPRP bucket B

Please classify: RRIRNRPPRLPRPRPRPFCQPRP bucket A

Please classify: RRIRGRPPRLPRPRPRPWQFPRP bucket C

Please classify: RRIRPRPPRLPRPRPRPVYYPRP bucket A

Please classify: RRIRVRPPRLPRPRPRPIYYPRP bucket A

---

Test system: Escherichia coli TOP10
assayMethodText: shrunken log2 fold change of peptide-encoding DNA abundance (4.5 h post-induction vs induction); higher = less antimicrobial activity (less host growth inhibition)
cond: time post-induction: 4.5 h; library: site-saturation at positions 5, 18, 19, 20
Response key: yes means shrunken log2 fold change >= -0.2; no means shrunken log2 fold change < -0.2.

Dear colleague, could you confirm whether RRIRQRPPRLPRPRPRPPMCPRP has shrunken log2 fold change at or above -0.2? no

Dear colleague, could you confirm whether RRIRPRPPRLPRPRPRPKHHPRP has shrunken log2 fold change at or above -0.2? no

---

Tested on: Escherichia coli TOP10
assayMethodText: shrunken log2 fold change of peptide-encoding DNA abundance (4.5 h post-induction vs induction); higher = less antimicrobial activity (less host growth inhibition)
cond: time post-induction: 4.5 h; library: site-saturation at positions 5, 18, 19, 20
Response key: True means shrunken log2 fold change >= -0.1; False means shrunken log2 fold change < -0.1.

Worked cases, answers included:
>>> label("RRIRNRPPRLPRPRPRPFWFPRP")
"True"
>>> label("RRIRRRPPRLPRPRPRPDHWPRP")
"False"
>>> label("RRIRARPPRLPRPRPRPRSPPRP")
"True"
>>> label("RRIRFRPPRLPRPRPRPDGWPRP")
"True"
>>> label("RRIRGRPPRLPRPRPRPCISPRP")
"False"

Dear colleague, could you confirm whether RRIRVRPPRLPRPRPRPNPNPRP has shrunken log2 fold change at or above -0.1? False

---

Test system: Escherichia coli TOP10
assayMethodText: shrunken log2 fold change of peptide-encoding DNA abundance (4.5 h post-induction vs induction); higher = less antimicrobial activity (less host growth inhibition)
cond: time post-induction: 4.5 h; library: site-saturation at positions 5, 18, 19, 20
Measured shrunken log2 fold change, listed per entry for reference.
# print the numeric value only

Some sequences with known shrunken log2 fold change results, for comparison:
>>> measuredresult("RRIRPRPPRLPRPRPRPMCDPRP")
0.164
>>> measuredresult("RRIRWRPPRLPRPRPRPKINPRP")
-0.245
>>> measuredresult("RRIRSRPPRLPRPRPRPPKCPRP")
-0.087
>>> measuredresult("RRIRSRPPRLPRPRPRPCEEPRP")
0.00181
>>> measuredresult("RRIRGRPPRLPRPRPRPKMLPRP")
0.509
>>> measuredresult("RRIRNRPPRLPRPRPRPKYYPRP")
-0.887
>>> measuredresult("RRIRGRPPRLPRPRPRPWPFPRP")
0.745
>>> measuredresult("RRIRFRPPRLPRPRPRPSHFPRP")
-0.136

// shrunken log2 fold change lookup, key: RRIRKRPPRLPRPRPRPFECPRP -0.0669

// shrunken log2 fold change lookup, key: RRIRQRPPRLPRPRPRPWVAPRP -0.182

---

Tested on: Escherichia coli TOP10
assayMethodText: shrunken log2 fold change of peptide-encoding DNA abundance (4.5 h post-induction vs induction); higher = less antimicrobial activity (less host growth inhibition)
cond: time post-induction: 4.5 h; library: site-saturation at positions 5, 18, 19, 20
Response key: yes means shrunken log2 fold change >= 0.07; no means shrunken log2 fold change < 0.07.

Worked cases, answers included:
>>> label("RRIRNRPPRLPRPRPRPSFFPRP")
"no"
>>> label("RRIRIRPPRLPRPRPRPWDHPRP")
"no"
>>> label("RRIRLRPPRLPRPRPRPYFAPRP")
"no"
>>> label("RRIRSRPPRLPRPRPRPYVTPRP")
"no"
>>> label("RRIRARPPRLPRPRPRPFSCPRP")
"no"

Dear colleague, could you confirm whether RRIRPRPPRLPRPRPRPSFKPRP has shrunken log2 fold change at or above 0.07? no

Dear colleague, could you confirm whether RRIRGRPPRLPRPRPRPNMCPRP has shrunken log2 fold change at or above 0.07? no

Dear colleague, could you confirm whether RRIRDRPPRLPRPRPRPCKLPRP has shrunken log2 fold change at or above 0.07? no

Dear colleague, could you confirm whether RRIRWRPPRLPRPRPRPSSTPRP has shrunken log2 fold change at or above 0.07? no

---

System: Escherichia coli TOP10
assayMethodText: shrunken log2 fold change of peptide-encoding DNA abundance (4.5 h post-induction vs induction); higher = less antimicrobial activity (less host growth inhibition)
cond: time post-induction: 4.5 h; library: site-saturation at positions 5, 18, 19, 20
measuredEndpoint: shrunken log2 fold change
# print the numeric value only

Some sequences with known shrunken log2 fold change results, for comparison:
>>> measuredresult("RRIRTRPPRLPRPRPRPAEPPRP")
0.392
>>> measuredresult("RRIRQRPPRLPRPRPRPHTWPRP")
-0.206
>>> measuredresult("RRIRGRPPRLPRPRPRPINNPRP")
-0.0606
>>> measuredresult("RRIRVRPPRLPRPRPRPCFIPRP")
-0.599

Next:
Write down the reported shrunken log2 fold change of RRIRMRPPRLPRPRPRPLPFPRP , test system: Escherichia coli TOP10. -0.117

---

System: Escherichia coli TOP10
assayMethodText: shrunken log2 fold change of peptide-encoding DNA abundance (4.5 h post-induction vs induction); higher = less antimicrobial activity (less host growth inhibition)
cond: time post-induction: 4.5 h; library: site-saturation at positions 5, 18, 19, 20
Response key: 1 means shrunken log2 fold change >= 0.01; 0 means shrunken log2 fold change < 0.01.

>>> label("RRIRIRPPRLPRPRPRPFTWPRP")
0

Dear colleague, could you confirm whether RRIRLRPPRLPRPRPRPCQFPRP has shrunken log2 fold change at or above 0.01? 0

Dear colleague, could you confirm whether RRIRCRPPRLPRPRPRPHSAPRP has shrunken log2 fold change at or above 0.01? 1

Dear colleague, could you confirm whether RRIRARPPRLPRPRPRPMFLPRP has shrunken log2 fold change at or above 0.01? 0

Dear colleague, could you confirm whether RRIRSRPPRLPRPRPRPMDGPRP has shrunken log2 fold change at or above 0.01? 0

Dear colleague, could you confirm whether RRIRCRPPRLPRPRPRPFECPRP has shrunken log2 fold change at or above 0.01? 0

---

Tested on: Escherichia coli TOP10;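 also: peptides expressed intracellularly from a pBAD plasmid library in pooled LB shake-flask culture, induced with 0.3% L-arabinose, DNA abundance read by NGS, three biological replicates, DESeq2 with apeglm shrinkage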
assayMethodText: shrunken log2 fold change of peptide-encoding DNA abundance (4.5 h post-induction vs induction); higher = less antimicrobial activity (less host growth inhibition)
cond: time post-induction: 4.5 h; library: site-saturation at positions 5, 18, 19, 20
Okay, here is how we bin by shrunken log2 fold change: lower segment = under -0.2, middle segment = from -0.2 up to -0.005, upper segment = -0.005 and over

Worked cases, answers included:
>>> label("RRIRERPPRLPRPRPRPDMGPRP")
"lower segment"
>>> label("RRIRWRPPRLPRPRPRPPCSPRP")
"upper segment"
>>> label("RRIRERPPRLPRPRPRPHNDPRP")
"lower segment"

Please classify: RRIRCRPPRLPRPRPRPKYQPRP middle segment

Please classify: RRIRLRPPRLPRPRPRPHDDPRP middle segment

Please classify: RRIRYRPPRLPRPRPRPQSTPRP lower segment

Please classify: RRIRGRPPRLPRPRPRPVYRPRP upper segment
